Target: Peroxisome proliferator-activated receptor gamma (Homo sapiens)
Sequence (P37231 whole entry): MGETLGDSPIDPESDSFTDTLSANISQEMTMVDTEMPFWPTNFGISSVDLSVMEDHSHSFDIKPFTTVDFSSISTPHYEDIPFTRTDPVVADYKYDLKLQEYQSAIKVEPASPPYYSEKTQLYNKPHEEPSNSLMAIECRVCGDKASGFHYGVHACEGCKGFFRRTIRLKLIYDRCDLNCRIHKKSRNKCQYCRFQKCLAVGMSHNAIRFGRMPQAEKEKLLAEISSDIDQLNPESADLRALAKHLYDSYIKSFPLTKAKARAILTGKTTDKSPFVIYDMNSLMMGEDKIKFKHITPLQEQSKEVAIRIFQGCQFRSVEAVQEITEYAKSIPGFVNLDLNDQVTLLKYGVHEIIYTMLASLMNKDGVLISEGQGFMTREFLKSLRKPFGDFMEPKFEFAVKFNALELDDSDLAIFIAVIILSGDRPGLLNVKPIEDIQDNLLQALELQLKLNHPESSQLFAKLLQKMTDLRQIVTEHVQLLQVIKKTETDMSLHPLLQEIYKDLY
parameter: log10(EC50) (log10 of the value in µM)

>>> assay_value("CCCc1cc2c(C(F)(F)F)noc2c(CCC)c1OC(C(=O)O)c1ccccc1 (configuration not stated)")
-0.44
>>> assay_value("CCCc1c(O)c(C(=O)CC)cc(Cl)c1OC(C(=O)O)c1ccccc1 (configuration not stated)")
0.58
>>> assay_value("CCCc1cc2c(C(F)(F)F)noc2c(CCC)c1O[C@H](C(=O)O)c1ccccc1")
-0.71
>>> assay_value("CCCc1cc2c(CC)noc2c(CCC)c1OC(C(=O)O)c1ccccc1 (configuration not stated)")
-0.25
>>> assay_value("CCCc1cc2c(C(F)(F)F)noc2c(CCC)c1OC(C(=O)O)c1ccc(OCc2ccccn2)cc1 (configuration not stated)")
-1.33
>>> assay_value("CCCc1cc2c(C(F)(F)F)noc2c(CCC)c1OC(C(=O)O)c1ccc(CCc2ccccn2)cc1 (configuration not stated)")
-0.96
>>> assay_value("CCCc1cc2c(C(F)(F)F)noc2c(CCC)c1O[C@@H](C(=O)O)c1ccccc1")
0.50
>>> assay_value("CCCc1c(OC(C(=O)O)c2ccccc2)c(Cl)cc2c(CC)noc12 (configuration not stated)")
0.05
>>> assay_value("CCCc1c(OC(C(=O)O)c2ccccc2)ccc2c(C(F)(F)F)noc12 (configuration not stated)")
0.66
>>> assay_value("CCCc1cc2c(C(F)(F)F)noc2c(CCC)c1OC(C(=O)O)c1ccc(Cl)cc1 (configuration not stated)")
-0.96
>>> assay_value("CCCc1cc(C(=O)CC)c(O)c(CCC)c1OC(C(=O)O)c1ccccc1 (configuration not stated)")
0.04
>>> assay_value("CCCc1cc2c(C(F)(F)F)noc2c(CCC)c1OC(C(=O)O)c1ccc(C(F)(F)F)cc1 (configuration not stated)")
-1.10

* * *

Read-out record for Peroxisome proliferator-activated receptor gamma (Homo sapiens): log10 of Ki
parameter: log10 of Ki (log10 of the value in µM)

>>> assay_value("CCCc1cc2c(CC)noc2c(CCC)c1OC(C(=O)O)c1ccccc1 (stereo unspecified)")
0.43
>>> assay_value("CCCc1cc2c(C(F)(F)F)noc2c(CCC)c1OC(C(=O)O)c1ccc(CCc2ccccn2)cc1 (stereo unspecified)")
-0.71
>>> assay_value("CCCc1cc2c(C(F)(F)F)noc2c(CCC)c1OC(C(=O)O)c1ccccc1 (stereo unspecified)")
-0.02
>>> assay_value("CCCc1cc(C(=O)OC)cc(Cl)c1OC(C(=O)O)c1ccccc1 (stereo unspecified)")
0.93
>>> assay_value("CCCc1cc(C(=O)OC)cc(C)c1OC(C(=O)O)c1ccccc1 (stereo unspecified)")
0.77

Recorded values, source ChEMBL document CHEMBL1136228.
